Molecular target: T1, PARD3B_1, Q8TEW8
T1 sequence (Q8TEW8 196-299, limits assumed, looked up): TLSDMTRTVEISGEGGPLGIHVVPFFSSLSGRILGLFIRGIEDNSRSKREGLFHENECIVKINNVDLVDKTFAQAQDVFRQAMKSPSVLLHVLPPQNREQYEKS
Assay: holdup assay
Parameters: key: below the threshold = too weak to quantify, mostly under pKd 3.1 to 4
Conditions: plain residues with an end cap or a label only (N-terminal biotin on a linker: ado-ado)
pKd overview
experimental endpoint: pKd

{"binder": "MLSKQSESAI [FLVCR1, Q9Y5Y0]", "experimental endpoint": "pKd", "numeric value": 3.47}
{"binder": "DDPSTAETVL [ABCA7, Q8IZY2]", "experimental endpoint": "pKd", "numeric value": 4.65}
{"binder": "VKPQVSESKL [ACOT8, O14734]", "experimental endpoint": "pKd", "numeric value": 3.69}
{"binder": "QSPANIYYKV [EFNB1, P52799]", "experimental endpoint": "pKd", "numeric value": 3.66}
{"binder": "RHGSCVETSL [TMEM151B, Q8IW70]", "experimental endpoint": "pKd", "numeric value": 3.95}
{"binder": "EKKTLIGIKL [GOT1L1, Q8NHS2]", "experimental endpoint": "pKd", "numeric value": 4.74}
{"binder": "LKVPPEERLI [CRB2, Q5IJ48]", "experimental endpoint": "pKd", "numeric value": 3.88}
{"binder": "ETQVTAETVI [TMEM225B, P0DP42]", "experimental endpoint": "pKd", "numeric value": 4.18}
{"binder": "TASPAKETSF [SLC2A7, Q6PXP3]", "experimental endpoint": "pKd", "numeric value": 3.96}
{"binder": "GNSVLKSTQF [SLC22A12, Q96S37]", "experimental endpoint": "pKd", "numeric value": 4.21}
{"binder": "NLSIEKETKL [ASNSD1, Q9NWL6]", "experimental endpoint": "pKd", "numeric value": 3.89}
{"binder": "QSLNRMEYIV [JAG1, P78504]", "experimental endpoint": "pKd", "numeric value": 3.83}
{"binder": "TSQESEDTYL [TBC1D10A, Q9BXI6]", "experimental endpoint": "pKd", "numeric value": 4.58}
{"binder": "YRLAQESGLV [ABCC6, O95255]", "experimental endpoint": "pKd", "numeric value": 4.13}
